All values here come from a melting point compilation (Tetko et al.; mined from patent text by program, amines drawn as free bases though some values may be those of a salt).

experimentalReadout: melting point

Worked examples, 8 compounds total:
# compound, melting point
data = [
    ("O=[N+]([O-])c1cccc(S(=O)(=O)N(CCO)CCO)c1", "100 to 102 °C"),
    ("O=C(O)Cc1c(C(=O)c2cc(C(=O)O)no2)[nH]c2ccc(Cl)cc12", "200 to 205 °C"),
    ("COc1ccc(C(=O)OC2C(OC)C=C(C)C(=O)CC2(C)C)cc1 (stereo not given)", "100 to 101 °C"),
    ("CO/N=C(/C)c1cccc(NC(=O)NCC(=O)N(CC(=O)N(C)c2ccccc2)c2ccccc2)c1", "165 °C"),
    ("Cc1ccc(Cc2cnc(NCCSCc3csc(CN(C)C)n3)[nH]c2=O)cn1", "154 to 155 °C"),
    ("Cc1cc(C)cc(S(=O)(=O)c2c(C(=O)O)[nH]c3ccc(Cl)cc23)c1", "277 to 278 °C"),
    ("O=c1[nH]c(=O)n(C2CC(F)C(CCl)O2)cc1C=CBr (stereo not given)", "203 °C"),
    ("Cc1n[nH]c(=O)c(-c2c(F)cc(F)cc2F)c1-c1ccc2ccccc2c1", "266 to 268 °C"),
]

Input line: Fill in the blank: the reported melting point of COc1ccc2c(c1)Sc1ccccc1C(=S)N2 is ____.
Output line: 239 to 241 °C

Input line: Same read-out for O=c1nc(-c2ccnc(N3CCN(c4ccc(F)cc4)CC3)c2)sc2ccccc12 ?
Output line: 233 to 234 °C

====

experimentalReadout: melting point

# molecule, melting point
measured = [
    ("NC(=S)C1(c2ccccn2)SCCCS1", "214 °C"),
    ("CCOc1c(CO)cnc2c1cnn2CC", "100 to 102 °C"),
]

Input line: Fill in the blank: the reported melting point of COc1ccccc1NC(=O)Nc1nc(N(CCC(=O)O)Cc2cccc(C)c2)nc(N2CCc3ccccc32)n1 is ____.
Output line: 201 °C

Input line: Same read-out for COc1cc(OC)nc(NC(=O)NS(=O)(=O)c2ccccc2CO)n1 ?
Output line: 149 to 150 °C

Input line: Same read-out for CC(C)NC(=O)c1cc(-n2c(=O)cc(C(F)(F)F)n(C)c2=O)c(F)cc1Cl ?
Output line: 146 to 149 °C

====

# reported melting point; entries follow

Worked examples, 5 compounds total:
# smi, result
rows = [
    ("O=C(O)CCc1cc(OCCCc2cn(-c3ccc(C(F)(F)F)cn3)nc2OCc2ccccc2)nn1-c1ccccc1", "159 to 161 °C"),
    ("c1ccc2cc3[nH]c(SCc4nccs4)nc3cc2c1", "153 to 157 °C"),
    ("CCOC(=O)c1cn(C)c2cnc3c(F)c(F)ccc3c2c1=O", "320 °C"),
    ("O=C(CF)c1ccc(F)cc1F", "57 to 58 °C"),
    ("CCCNC1=NS(=O)(=O)c2cc([N+](=O)[O-])ccc2N1", "268 to 270 °C"),
]

Input line: Fill in the blank: the reported melting point of CCN1CCc2cc(Nc3ncc(Cl)c(Nc4ccccc4C(=O)NC)n3)c(OC)cc2CC1=O is ____.
Output line: 120 to 132 °C

Input line: Same read-out for CC(C)C[C@@H](CO)NC(=O)[C@@H](NC(=O)c1ccc(C=O)o1)C(C)C ?
Output line: 39 to 41 °C

Input line: Same read-out for Cc1cc(-n2cncn2)c2cccc(C)c2n1 ?
Output line: 99 to 100 °C

Input line: Same read-out for O=C(/C=C/C=C/c1ccccc1)NCCCOc1ccc(CC(=O)NO)cc1 ?
Output line: 198 to 201 °C

Input line: Same read-out for CCOP(=O)(CC(=O)Nc1cc2c(Nc3ccc(Cl)c(Cl)c3)ncnc2cn1)OCC ?
Output line: 121 to 124 °C

====

experimentalReadout: melting point

Worked examples, 3 compounds total:
# compound, result
data = [
    ("CNC(=O)Nc1snc(N(C)C)c1C(N)=O", "221 °C"),
    ("N#Cc1cnc(Nc2ccc(CCn3ccnc3)cc2)nc1-c1ccccc1", "210 to 211 °C"),
    ("IC#CCOc1cccnc1", "130 °C"),
]

Input line: Fill in the blank: the reported melting point of CC(=O)SC1CC(=O)N1C(C(=O)OCc1ccc([N+](=O)[O-])cc1)=P(c1ccccc1)(c1ccccc1)c1ccccc1 (centres undefined) is ____.
Output line: 154 to 155 °C

Input line: Same read-out for O=C(O)CCCc1cc2nc(Cl)ccc2n1S(=O)(=O)c1cccc(Cl)c1Cl ?
Output line: 173 to 174 °C

Input line: Same read-out for CSc1ccc(COc2c(C)c(C)c3c(c2C)C(c2ccc(C(C)C)cc2)C(C)(C)O3)cc1 (centres undefined) ?
Output line: 118 to 120 °C

Input line: Same read-out for Nc1ccc(NCCc2ccccc2)cc1 ?
Output line: 247 °C

Input line: Same read-out for CC(C)CCC(=O)NC(C)(Cc1c[nH]c2ccccc12)C(=O)NC(Cc1ccccc1)C(N)=O (racemic) ?
Output line: 170 to 171 °C

Input line: Same read-out for O=c1[nH]c2ccc(O)cc2[nH]1 ?
Output line: 186 to 187 °C

Input line: Same read-out for CN(C)C(=O)c1nc2ccccc2n(Cc2ccccc2)c1=O ?
Output line: 154 to 155 °C

Input line: Same read-out for Cc1noc(C)c1-c1ccc(C[C@H](NC(=O)c2c(Cl)cccc2Cl)C(=O)O)cc1 ?
Output line: 152 °C

Input line: Same read-out for CC(=O)C(=NNc1ccccc1)C(=O)N(C)C ?
Output line: 131 to 133 °C

Input line: Same read-out for COc1ccccc1NC(=O)Nc1ccc(C2CCN(C(=O)Nc3ccc(OCC(O)CO)cc3Cl)CC2)cc1 (centres undefined) ?
Output line: 158 to 161 °C

Input line: Same read-out for CC(C)N(Cc1ccccc1)S(=O)(=O)N[C@@H](Cc1ccc(NC(=O)c2c(Cl)cccc2Cl)cc1)C(=O)O ?
Output line: 159 °C

Input line: Same read-out for COC1=CC(=O)C(OC)=C(CCCOCCC2=C(OC)C(=O)C=C(OC)C2=O)C1=O ?
Output line: 129 to 130 °C

Input line: Same read-out for CCOC(=O)CCc1ccccc1CNC(=O)C1Cc2ccccc2N1S(=O)(=O)c1ccc(-c2cccc(C(F)(F)F)c2)cc1 (centres undefined) ?
Output line: 48 °C

Input line: Same read-out for CCCCCCCCOc1ccc(C=[N+]([O-])C(C)(C)C)c(F)c1 ?
Output line: 35.6 °C

Input line: Same read-out for Cc1c(NC(=O)c2ccc(-c3ccc(F)cc3)cc2)ccc2cc(CN3CCCC3Cc3ccccc3)cnc12 (centres undefined) ?
Output line: 172 to 174 °C

Input line: Same read-out for CNC(=O)Oc1ccc(NC=O)c2c1CCCC2 ?
Output line: 165 to 166 °C

====

experimentalReadout: melting point

Worked examples, 5 compounds total:
# compound, melting point
records = [
    ("O=C(CC(F)(F)F)CS(=O)(=O)C(c1ccc(Cl)cc1)c1ccc(Cl)cc1", "48 to 50 °C"),
    ("Cc1cc2c(ccc3ccsc32)c2ccccc12", "130 to 131 °C"),
    ("CCCOC(=O)C1=C(N)NC(C)=C(C(=O)OCC)C1c1cccc([N+](=O)[O-])c1 (centres undefined)", "168 °C"),
    ("Cc1cc(C(=O)Nc2ccc(C(N)=O)cc2)on1", "> 300 °C"),
    ("Cc1oc(-c2ccccc2)nc1COc1ccc2c(-c3ccccc3)c(COc3nn(-c4ccccc4)cc3C(=O)O)oc2c1", "200 to 201 °C"),
]

Input line: Fill in the blank: the reported melting point of OCC1OC(n2cnc3c(Nc4ccccc4)ccnc32)C(O)C1O (centres undefined) is ____.
Output line: 189 °C

Input line: Same read-out for O=C1c2ccccc2C2(O)Oc3c(ccc(Cl)c3Cl)C12O (centres undefined) ?
Output line: 142 to 150 °C

Input line: Same read-out for COC(=O)C1=C(C)NC(C)=C(C(=O)OCC(C)(C)CN(C)C)C1c1cccc([N+](=O)[O-])c1Cl (centres undefined) ?
Output line: 167 to 169 °C

Input line: Same read-out for CC1(C)OC(=S)Nc2ccc(-c3cccc([N+](=O)[O-])c3)cc21 ?
Output line: 224 to 226 °C

====

# reported melting point; entries follow

# compound, melting point
data = [
    ("O=C(O)c1ccc2nc(/C=C/c3ccccc3)cc(=O)n2c1", "293 to 295 °C"),
    ("CCCCC[C@@H](COc1ccc(C(=O)O)cc1)c1ccc2c(c1)C(C)(C)CCC2(C)C", "74 to 76 °C"),
]

Input line: Fill in the blank: the reported melting point of CC1(C)C(C=CC(=O)Cl)C1C(=O)OC(C#N)c1cccc(Oc2ccccc2)c1 (centres undefined) is ____.
Output line: 86 °C

Input line: Same read-out for COC(=O)c1nn2c(C)csc2c1SSc1c(C(=O)OC)nn2c(C)csc12 ?
Output line: 193 to 194 °C
